# Experimental target: Voltage-gated potassium channel subunit beta-2 (Rattus norvegicus) (UniProt P62483)
# Sequence (P62483 whole entry, looked up): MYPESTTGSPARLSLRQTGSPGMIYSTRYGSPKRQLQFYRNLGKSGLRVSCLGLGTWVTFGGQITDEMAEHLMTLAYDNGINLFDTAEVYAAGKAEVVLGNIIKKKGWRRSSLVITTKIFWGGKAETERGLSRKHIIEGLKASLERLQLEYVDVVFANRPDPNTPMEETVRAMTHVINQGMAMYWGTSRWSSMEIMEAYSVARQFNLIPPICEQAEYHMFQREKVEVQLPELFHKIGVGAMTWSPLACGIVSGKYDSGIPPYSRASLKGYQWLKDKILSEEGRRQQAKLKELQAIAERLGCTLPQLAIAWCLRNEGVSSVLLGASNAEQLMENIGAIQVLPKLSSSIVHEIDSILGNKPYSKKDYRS
# Run description: KvBeta positive modulators, primary screen, biochemical, NADPH fluorescence (AID 623);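 further: fluorescence intensity change per second fitted from 20 to 320 s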
# Conditions: Recombinant KvBeta, NADPH fluorescence decrease slope, 10 min; at 10 µM; stronger effect = lower value
Property name: NADPH fluorescence slope
Field format: numeric only.

The cases that follow already have their NADPH fluorescence slope on record.
# Molecule, NADPH fluorescence slope
measured = [
    ("CC(=O)Nc1cnc2ccccc2n1", "-5.9e-05"),
    ("CCc1cccc(C)c1N(C(=O)Cn1c(=O)[nH]c2ccccc21)C(C)COC (stereo unspecified)", "-4.3e-07"),
    ("O=C(c1cccc2ccccc12)N1CCC(N2CCN(c3ccccc3)CC2)CC1", "-1.2e-05"),
    ("CN(C)CCCOC(=O)C1c2ccccc2Oc2ccccc21", "-1.7e-05"),
]

So what's the measured NADPH fluorescence slope for this one? `O=C(O)c1cc2cc(F)ccc2[nH]1`
-3.2e-05

Tell me the measured NADPH fluorescence slope of `COCCCNc1nc(-c2ccncc2)nc2ccccc12` , please.
-8.3e-05

Form field: reported NADPH fluorescence slope of `Cc1cc(N2CCN(C3CCCC3)CC2)n2c(nc3ccccc32)c1C#N`
-3.1e-05

Would you kindly share the measured NADPH fluorescence slope for COc1cccc(C2/C(=C(\O)c3ccc4c(c3)OCCO4)C(=O)C(=O)N2CCN(C)C)c1 (stereo unspecified) ?
-3.2e-05

Recorded NADPH fluorescence slope for `[N-]=[N+]=CC(=O)c1ccnc(C(=O)C=[N+]=[N-])c1` , please?
-6.3e-05

NADPH fluorescence slope for `CCOC(=O)c1cc2c(=O)n3ccccc3nc2n(Cc2ccccc2Cl)c1=N` ?
-0.000121

Please give the measured NADPH fluorescence slope for this molecule: `CCN(CC)CCNC(=O)c1cc(S(C)(=O)=O)ccc1OC`
-3.1e-05

Looking for the measured NADPH fluorescence slope of CC12CCC(C(=O)NCCCN3CCOCC3)(OC1=O)C2(C)C (stereo unspecified) , can you help?
-0.000122

So what does the record say about NADPH fluorescence slope for `CC1(C)CC(=O)C(C=NCCN2CCN(C(=O)C34CC5CC(CC(C5)C3)C4)CC2)=C(O)C1` ?
-5.1e-05

Given the molecule COc1ccc(C2CC(C(F)(F)F)n3ncc(C(=O)NCC4CCCO4)c3N2)cc1OC (stereo unspecified) , what is its reported NADPH fluorescence slope?
-6.1e-05
